conditions: in isobutanol, 273.15 K
parameter: solubility (mole fraction)

smiles: O=[N+]([O-])c1cccc2ccccc12
recorded-value: 0.00604

###

details: in acetonitrile, 283.15 K

smiles: O=[N+]([O-])c1cccc2ccccc12
solubility (mole fraction): 0.104

###

conditions: in isopropanol, 273.15 K
parameter: solubility (mole fraction)

smiles: O=[N+]([O-])c1cccc2ccccc12
recorded-value: 0.00588

###

conditions: in ethanol, 278.15 K
parameter: solubility (mole fraction)

smiles: O=[N+]([O-])c1cccc2ccccc12
recorded-value: 0.0111

###

conditions: in dichloromethane, 298.15 K
parameter: solubility (mole fraction)

smiles: O=[N+]([O-])c1cccc2ccccc12
recorded-value: 0.5

###

details: in n-butanol, 298.15 K

smiles: O=[N+]([O-])c1cccc2ccccc12
solubility (mole fraction): 0.0359

###

conditions: in isopropanol, 293.15 K
parameter: solubility (mole fraction)

smiles: O=[N+]([O-])c1cccc2ccccc12
recorded-value: 0.0163

###

conditions: in isobutanol, 288.15 K
parameter: solubility (mole fraction)

smiles: O=[N+]([O-])c1cccc2ccccc12
recorded-value: 0.0123

###

settings: in ethanol, 308.15 K

smiles: O=[N+]([O-])c1cccc2ccccc12
solubility (mole fraction): 0.0467

###

conditions: in acetone, 298.15 K

smiles: O=[N+]([O-])c1cccc2ccccc12
solubility (mole fraction): 0.426

###

conditions: in n-butanol, 293.15 K

smiles: O=[N+]([O-])c1cccc2ccccc12
solubility (mole fraction): 0.0274

###

settings: in n-propanol, 293.15 K

smiles: O=[N+]([O-])c1cccc2ccccc12
solubility (mole fraction): 0.0228

###

settings: in n-propanol, 273.15 K

smiles: O=[N+]([O-])c1cccc2ccccc12
solubility (mole fraction): 0.0094

###

conditions: in dichloromethane, 288.15 K

smiles: O=[N+]([O-])c1cccc2ccccc12
solubility (mole fraction): 0.384

###

conditions: in methyl acetate, 288.15 K

smiles: O=[N+]([O-])c1cccc2ccccc12
solubility (mole fraction): 0.26

###

conditions: in methyl acetate, 273.15 K

smiles: O=[N+]([O-])c1cccc2ccccc12
solubility (mole fraction): 0.135

###

settings: in acetonitrile, 303.15 K
parameter: solubility (mole fraction)

smiles: O=[N+]([O-])c1cccc2ccccc12
recorded-value: 0.433

###

details: in dichloromethane, 303.15 K

smiles: O=[N+]([O-])c1cccc2ccccc12
solubility (mole fraction): 0.554

###

details: in n-butanol, 288.15 K
parameter: solubility (mole fraction)

smiles: O=[N+]([O-])c1cccc2ccccc12
recorded-value: 0.0214

###

settings: in ethanol, 288.15 K

smiles: O=[N+]([O-])c1cccc2ccccc12
solubility (mole fraction): 0.0173

###

conditions: in ethyl acetate, 273.15 K
parameter: solubility (mole fraction)

smiles: O=[N+]([O-])c1cccc2ccccc12
parameter: solubility (mole fraction)
recorded-value: 0.143

###

conditions: in ethyl acetate, 308.15 K

smiles: O=[N+]([O-])c1cccc2ccccc12
solubility (mole fraction): 0.566

###

conditions: in methyl acetate, 308.15 K

smiles: O=[N+]([O-])c1cccc2ccccc12
solubility (mole fraction): 0.59

###

conditions: in dichloromethane, 308.15 K

smiles: O=[N+]([O-])c1cccc2ccccc12
solubility (mole fraction): 0.637

###

details: in ethanol, 293.15 K

smiles: O=[N+]([O-])c1cccc2ccccc12
solubility (mole fraction): 0.0218

src = BigSolDB 2.1
